- System: p-ERK in NCI-H441 cells (KRAS G12V mutation)
- assay-info: Cell p-ERK assay (HTRF) in NCI-H441 cells
- Assay type: cell-based, human
- measurement-context: NCI-H441 cells, 3 h compound incubation, HTRF p-ERK T202/Y204; read-out: H441 p-ERK IC50
Give IC50 for every item shown.
Give bare numbers, in nM.

molecule	unit	recorded-number
CCn1c(-c2cc(OCC3(N4CCCOCC4)CC3)cnc2[C@H](C)OC)c2c3cc(ccc31)-c1csc(n1)C[C@H](NC(=O)[C@H]1[C@H](C)[C@@H]1C)C(=O)N1CCC[C@H](N1)C(=O)OCC1(CC1)C2 (atropisomer, axis not shown; (Ra)) [Compound Z464]	nM	1.9
CCn1c(-c2cc(OCCN3CCS(=O)(=O)CC3)cnc2[C@H](C)OC)c2c3cc(ccc31)-c1csc(n1)C[C@H](NC(=O)C(C)C(C)C)C(=O)N1CCC[C@H](N1)C(=O)OCC(C)(C)C2 (stereo partly shown)	nM	0.45
CO[C@@H](C)c1ncc(OCCN2CCOC3(CC3)C2)cc1-c1c2c3cc(ccc3n1CC(F)(F)F)-c1csc(n1)C[C@H](NC(=O)[C@H]1[C@H](C)[C@@H]1C)C(=O)N1CCC[C@H](N1)C(=O)OCC1(CC1)C2 [Compound Z350]	nM	9.1

API: the following record is the query input.
Request: Look up IC50 of CCn1c(-c2cc(C#CCN3CCCOCC3)cnc2C(C)C)c2c3cc(ccc31)-c1csc(n1)C[C@H](NC(=O)[C@H]1[C@H](C)[C@@H]1C)C(=O)N1CCC[C@H](N1)C(=O)OCC(C)(C)C2 (atropisomer, axis not shown; (Sa)) and report it.
Result: 0.21

Ref: patent US20260234165A1
